System: HSkMC
Assay: cytotoxicity call (relative viability < 0.9)
Details: 10 µM
In all, about 39,000 compounds went through this assay and about 1,500 (3.8%) were called active. Only a selection was taken, and actives are over-represented in it overall.
The categories you may choose from are yes (active), no (inactive)

Field: example entries. Status: answers known.
NCc1cn(Cc2ccc(Cl)c(Cl)c2)cn1 = no
COCc1cn(CC[C@@H]2CC[C@@H](NC(=O)CCN3CCCCC3)[C@@H](CO)O2)nn1 = no
CC1(C)[C@H](C(N)=O)CC[C@@]1(C)C(=O)O = no
COCC#Cc1cnc2c(c1)C(=O)N([C@@H](C)CO)C[C@H](C)[C@H](CN(C)C(=O)Nc1ccccc1OC)O2 = no
Cc1noc(C)c1S(=O)(=O)Nc1ccc2c(c1)C(=O)N([C@H](C)CO)C[C@H](C)[C@H](CN(C)Cc1ccc(Cl)c(Cl)c1)OCCCC[C@@H](C)O2 = no
C[C@@H]1CCCCO[C@@H](CN(C)C(=O)Nc2ccc(C(F)(F)F)cc2)[C@@H](C)CN([C@H](C)CO)C(=O)c2cc(NC(=O)Cc3ccccc3)ccc2O1 = no
C[C@@H]1CCCCO[C@H](CN(C)Cc2ccc(C(F)(F)F)cc2)[C@H](C)CN([C@H](C)CO)C(=O)c2cc(NS(=O)(=O)c3cccs3)ccc2O1 = no
O=C(NCCO)c1cc2ccccc2oc1=O = no

Prompt: What call does the record list for "NC1CCN(C(=O)N2CCCC2)CC1" ?
Response: no

----------
Test system: HSkMC (human skeletal muscle cells)
Test: cytotoxicity call (relative viability < 0.9)
Details: 10 µM
The campaign covered roughly 39,000 compounds. About 1,500 (3.8%) were called active. Only a selection was taken, and actives are over-represented in it overall.
The categories you may choose from are active, inactive

C[C@@H]1CN([C@@H](C)CO)C(=O)Cc2cc(NC(=O)C3CCCCC3)ccc2O[C@@H]1CN(C)Cc1ccc(Cl)c(Cl)c1 = active
Cc1cc(C(=O)O)cc(S(N)(=O)=O)c1 = inactive
C[C@@H]1CN([C@@H](C)CO)C(=O)Cc2cc(NC(=O)C3CCCCC3)ccc2O[C@H]1CN(C)Cc1ccc(Cl)c(Cl)c1 = inactive

Prompt: What call does the record list for "O=C1O[C@@H](c2ccccc2)[C@@H](c2ccccc2)N2[C@@H](c3ccc(O)cc3)[C@]3(C(=O)Nc4ccc(C#CC5(O)CCCCCC5)cc43)[C@@H](C(=O)N3CCCCCCC3)[C@H]12" ?
Response: inactive

Prompt: What call does the record list for "Cc1ccc(S(=O)(=O)Nc2ccc3c(c2)CC(=O)N([C@H](C)CO)C[C@@H](C)[C@H](CN(C)Cc2ccc(Cl)c(Cl)c2)O3)cc1" ?
Response: inactive

Prompt: What call does the record list for "C[C@@H]1CCCCO[C@@H](CN(C)Cc2ccc(C(F)(F)F)cc2)[C@H](C)CN([C@H](C)CO)C(=O)c2cc(NS(=O)(=O)c3ccc(F)cc3)ccc2O1" ?
Response: inactive

Prompt: What call does the record list for "C[C@H]1CN([C@@H](C)CO)C(=O)c2cc(NC(=O)CCN3CCOCC3)ccc2O[C@H]1CN(C)S(=O)(=O)c1ccc(F)cc1" ?
Response: inactive

Prompt: What call does the record list for "O=C(O)c1ccc(N2CCCS2(=O)=O)cc1" ?
Response: inactive

Prompt: What call does the record list for "C[C@H]1O[C@@H](O[C@H]2[C@@H](O)C[C@H](O[C@H]3[C@@H](O)C[C@H](O[C@H]4CC[C@@]5(C)[C@H](CC[C@@H]6[C@@H]5C[C@@H](O)[C@]5(C)[C@@H](C7=CC(=O)OC7)CC[C@]65O)C4)O[C@@H]3C)O[C@@H]2C)C[C@H](O)[C@@H]1O" ?
Response: active

Prompt: What call does the record list for "COCC(=O)N1C[C@H](C)[C@@H](OC)CN(C)C(=O)c2cc(NC(=O)Nc3cccc(F)c3)ccc2OC[C@@H]1C" ?
Response: inactive
